# Tested on: HEK293 cells
# Assay type: cell-based, human
# Experimental conditions: luminescence from secreted Gluc in supernatant 24 hours after transfection of HEK293 cells; circular RNA encoding Gluc with the named IRES (UTR truncated to 675 nt)
The following molecules are shown together with reported Expression values.
// no unit string in output, number only

# example entries with known answers
State the recorded Expression for this entry: Pronghorn antelope pestivirus (nucleic acid, listed as Pestivirus sp.) DNA: GTATACGCAGTTAGTTCATCCTGTGTATACAGATTGGAGACTCTAAAAACAACGATTCGGAATAGGGGCCCGCGGCGAAGACCGAAGACAGGCTAACCATGCCGTTAGTAGGGCTAGCACCAAAACGCGGGAACTAGACACTTAGGAGAGTGGTCTGGCTACTCTAAGAGGTGAGTACACCTTAACCGTCAAGGGTTCTACTCCTCAGTTGAGGACTAGAGATGCCCTGTGGACGGGGGCATGCCCAAGAGTTAGCTTAGCCGGGGCGGGGGTTGTTCCGGTGAAAGTAGCAATATTGACCACACTGCCTGATAGGGCGGAGCAGGCCCCCTAGGTAGTCTAGTATAAAATGTCTGCTGTACATGGCAC
1.35E+06

How about this molecule: Feline infectious peritonitis virus (nucleic acid) DNA: ACTTTTAAAGTAAAGTGAGTGTAGCGTGGCTATAACTCTTCTTTTACTTTAACTAGCCTTGTGCTAGATTTGTCTTCGGACACCAACTCGAACTAAACGAAATATTTGTCTCTCTATGAAACCATAGAAGACAAGCGTTGATTATTTCACCAGTTTGGCAATCACTCCTAGGAACGGGGTTGAGAGAACGGCGCACCAGGGTTCCGTCCCTGTTTGGTAAGTCGTCTAGTATTAGCTGCGGCGGTTCCGCCCGTCGTAGTTGGGTAGACCGGGTTCCGTCCTGTGATCTCCCTCGCCGGCCGCCAGGAGA
1.35E+05

One more molecule: Yokose virus (nucleic acid, listed as Yokose virus) DNA: AGTAAATTTTGCGTGCTAGTCGCTGAGCGTCAGACCGCAAAGTGAGTTTTTAGTGATCTAAAGTGAGGAGTTATTCTTACTGTCATCAAACACTACAAATAAACACGTTGAAATTATTTCCGGAAGAACAACTGTCCGGAATCAAAGACG
8.55E+04

Please answer likewise for Culex theileri flavivirus (nucleic acid, listed as Flavivirus sp.) DNA: ATATAAATCCCAGTTTGGTTAAACCTATTTCAAGGCTTAAGTTGTTTATTATTTTATCGCCGCTCGTGACTATAAAGTTGCCTAGCGGAGAGAGATAAAGAAGAAGGAGTTCAAGGCTCAGGGCAGGGCGCAAGTTCCCTGGTCCCTAGGCCGCTCGCAGGAAGGAGGAGTGAAGAAGAAGAAAGAGAAGGAGAGGACCACCGCCGAAAGAAGGCAGGTGCCTCACAAGAGGGCCAACCAGCGTGTTGGACCAGTGGCCAACGCCGGACGGCGTGGTGGCCTGCTGGGACGCCTGGGGATTGGATGGAGTGCCTTCCTACAGGAAGACATCGTTCAAGCCATC
8.52E+04

***
Name the recorded Expression for Porcine pestivirus 1 (nucleic acid, listed as Pestivirus sp., chemistry not fully specified; the letters are possibly those of the target site) DNA: GCAGATATCGGTGGTGGACCTGGGGGTTGGGCTCACCGTGCCCCTTCATGGGGTAGACCTCACTGCTTGATAGAGTGCCGGCGGATGCCTCAGGTAAGAGTATAAAATCCGTTGTTCACTAAC .
9.46E+04

Follow-up item: Mouse Mosavirus (nucleic acid, listed as Mosavirus sp.) DNA: GAAGTTGATCATGAACTTGGTTATTGGTGGAACGCACATGAACTCCCAACAATGATCTTGAAGACACAGCGTGGTAACAATTACCATGCCCTTGTGGCTGCCCAAGACATTGATGGCTATTGGGTGATTTATGATGAC
9.00E+04

Note, next up: Bat dicibavirus (nucleic acid) DNA: GTATAGCACCGGAATGGTATTTTACTACTCCAAGTATACGTACTAGGAGTTAAACCCTGTAATTTACAGGGGATTTAGTGACTTTTATCCGTAAAAGTCGATTGGACGTTAATCGGTAACGAGGCCAAGTACCGTGAACCAATTTAAAAACGTATTTTCTCATGTGGTAGAACCAACTTGGAAATAGCATGGCATATAGGTTGTTTAGGG
7.43E+04

Note, next up: Dolphin morbillivirus (nucleic acid, listed as Morbillivirus sp., chemistry not fully specified; the letters are possibly those of the target site) DNA: ACCAGACAAAGCTGGCTAGGGGTAGAATAACAGATAATGATAAATTATCATACTTAGGATTAATGATCCTATCAATTGGCACAGGATTTGGATAAAGGTTCACAGTC
1.22E+05

What about this molecule? Guereza hepacivirus (nucleic acid, listed as Hepacivirus sp.) DNA: CACTCAATACTACACTCCGCATTTGGGGAGAAGCGCTGGCGTTCGCGGAACCGCGTTAACCATACGCGTAGTACGAGTGCGACAGACCCCGGTGCTACTGGTGGTAGCGAGACACGAGCCGAAGTCTGTGGGGGGAACTCCACTTAGAGGGCATGCCCGGGCGTAGGCTTCTGAGTTGGGATGGGCCCCAACTTGGCCCCTGAGTGGGGGGGTGTTACGACCTGATAGGGTGCGGGCTGGCGCCTACCACTTTCCAGTCGTACATGAGTC
1.38E+05

Hubei zhaovirus-like virus 1 (nucleic acid) DNA: GTGCAGGATGGCCTTTCCCATCTTAAGTGGTTTGTAGGATTTCGTGGGTCCATACCCCCCGATTTCTTGGTACGTATTCCATGCACGGAGAATACGACCAAAACTCTTATTTCAAAAAATATTATTTTTTACTCTTGTGGGCTGAGTGCGACCCACCAGTTCCAGCTTAGCAACCTGGAAGTTGTTGGAGATTTATGGAACCAAATTACACATGCGTGGAGTGCCGCCACTCCGTATCTGTTCACTCATTACGCGATTAAGTTCTGCGACGAGACGAGCGAA , same question.
1.03E+05
